- ASSAY OVERVIEW: NCI Yeast Anticancer Drug Screen. Data for the bub3 strain (AID 167)
- CONDITION SUMMARY: S. cerevisiae bub3 mutant strain, at 100.0 µM, stronger effect = higher value
Compounds without any hit were thinned out: in the full panel of roughly 79,000, 15% have a hit.
Grouping by measured growth inhibition is done with the following cut points: lower level = under 20%, middle level = from 20% up to 90%, upper level = 90% and over

COMPOUND | CLASSIFICATION
CC(C)(CN1CCCCC1)C(=O)CC(SCCS(=O)(=O)O)c1ccc(Br)cc1 (stereo unspecified) | middle level
NCCNc1ccc(NCCN)c2c1C(=O)c1c(O)ccc(O)c1C2=O | middle level
CCC(=O)Oc1c(Cl)cc(Cl)c2ccccc12 | lower level
CC(=O)OCC(=O)C1(O)CCC2C3CCC4CCCCC4(C)C3CCC21C (stereo unspecified) | middle level
Brc1ccc(-c2cc3c(cc2C2SCCS2)OCO3)cc1 | middle level
Cc1cc(I)ccc1N | upper level
CCCc1cc(C(=O)OCC)cc(CCC)c1O | upper level
O=C(Cc1csc2[n+]1C(=O)/C(=C/c1ccc(Cl)cc1)S2)Nc1ccccc1 | lower level
FC(F)(F)c1cc(NC(=S)N2c3ccccc3-n3cccc3C2c2cccnc2)cc(C(F)(F)F)c1 (stereo unspecified) | lower level
CC(=O)[O][Bi]([c]1ccccc1)[c]1ccccc1 | upper level

###

- ASSAY OVERVIEW: NCI Yeast Anticancer Drug Screen. Data for the mec2-1 strain (AID 157)
- CONDITION SUMMARY: S. cerevisiae mec2-1 strain, at 11.0 µM
- Protocol: Growth inhibition of yeast strains with defined genetic alterations is measured as a screen for potential anti-cancer activity. Selected strains with alterations in DNA damage repair or cell cycle control were exposed to compounds and growth inhibition was measured relative to vehicle treated controls. The strain used in this assay is mec2-1
This is part of a sample that, as a whole, favours compounds with a hit. Of some 79,000 tested, about 15% had one in any assay. Calls of active or inactive are those of the source. Rule as the data show it: active = growth inhibition above about 70%; inactive = the rest.
Outcome codes: label 1 for active, label 0 for inactive

COMPOUND | CLASSIFICATION
C[S+](C)C1(c2ccccc2)C(=O)c2ccccc2C1=O | label 0
S=c1[nH]nc(Nc2ccc(Cl)cc2)s1 | label 0
CC(=O)Oc1cc(-c2cc(OC(C)=O)c(OC(C)=O)c3ccccc23)c2ccccc2c1OC(C)=O | label 0
O=CC=C(c1ccccc1)c1ccccc1 | label 0
O=[N+]([O-])C(=C(Sc1ccccc1)Sc1ccccc1)C(Cl)=C(Cl)Cl | label 0
Cc1c(C2=C(Br)C(=O)N(C)C2=O)c(=O)n(C)c(=O)n1C | label 0
CN1c2ccc(Cl)cc2C(=O)NC1c1ccc([N+](=O)[O-])s1 (stereo unspecified) | label 0
O=C(NNc1ccnc2cc(Cl)ccc12)/C(=C\c1ccccc1Cl)NC(=O)c1ccccc1 | label 0
CN(CCc1ccccn1)c1ccc2c(c1)Cc1ccccc1-2 | label 0
O=C1C(Nc2ccccc2)=C(Oc2ccccc2)C(=O)c2ccccc21 | label 0
N#CN=Nc1cc(Cl)c(N=NC#N)cc1Cl | label 0
C(CCSC1=NCCN1)CSC1=NCCN1 (tested in a mixture with another compound) | label 1
CC(C)c1ccccc1NC(=O)/C(Cl)=C(\Cl)C(=O)O | label 0
CN(C)CCn1c2c3ccccc3ccc2c2oc(=O)c3ccccc3c21 | label 0
CN(C)c1ccc(C(C#N)=C(C#N)C#N)cc1 | label 0
NNC(=O)CCc1ccc2ccc3ccccc3c2c1 | label 0
CC1=C(C)Cc2c(O)ccc(O)c2C1 | label 0
Cc1ccc(S/N=C\c2ccccc2O)cc1 | label 0
COc1cc(C(=O)/C=C/c2ccccc2O)ccc1O | label 1
CCC[CH2][Ge]([CH2]CCC)([CH2]CCC)[O]C(=O)C(OC)c1ccccc1 (stereo unspecified) | label 0
CN(C)C[C@H]1CC[C@@H](CN(C)C)C1=O | label 0
Cc1ccc(NN(NC(=O)OC(C)C)C(=O)OC(C)C)cc1 | label 0
CC(C)[N+]([O-])(CCCNc1c2ccccc2nc2cccc([N+](=O)[O-])c12)C(C)C | label 1
CCCCCCCCCCC(=O)Cl | label 0
CC(O)C(O)C(O)C(/C=N\Nc1ccccc1)=N/Nc1ccccc1 (stereo unspecified) | label 0
S=C(S)NN1CCOCC1 | label 0
OC(c1ccc(F)cc1)(c1ccc(F)cc1)C1CC1 | label 0
[O-][n+]1c2ccc(O)cc2nc2ccc(Cl)cc21 | label 0
Oc1cccc2c(Cl)ccnc12 | label 1
CCC(C)COC(=O)c1ccc(N=Cc2ccc(C=Nc3ccc(C(=O)OCC(C)CC)cc3)cc2)cc1 (stereo unspecified) | label 0
CCCCN1C(=O)N(c2ccc(OCC)cc2)C2N(CCCC)C1C(C)(C)C2(C)C (stereo unspecified) | label 0
CC(C)(CN1CCCCC1)C(=O)CC(SCCS(=O)(=O)O)c1ccc(Br)cc1 (stereo unspecified) | label 0
O=C1c2cc([N+](=O)[O-])ccc2-c2cccc(F)c21 | label 0
c1ccc2c(c1)Oc1cccc3cccc-2c13 | label 0
CC(C)C1=CC2=C[C@H](O)[C@H]3C(C)(C)CCC[C@]3(C)C2=C(O)C1=O | label 1
CCOC(=O)c1cnc2cc(C(F)(F)F)ccc2c1N=[N+]=[N-] | label 0
O=C1CSC(/C=C/c2ccccc2)N1c1ccc(-c2ccc(-n3c(-c4ccccc4)nc4ccccc4c3=O)cc2)cc1 (stereo unspecified) | label 0
CCN(CC)CC[n+]1ccc2c(C)c3[nH]c4ccc(O)cc4c3c(C)c2c1 | label 0
C=C1CC(Cn2cc(Br)c(=O)[nH]c2=O)(c2ccc(-c3ccccc3)cc2)OC1=O (stereo unspecified) | label 0
CC(=O)N/N=C/C(C)(C)C(C)(C)/C=N/NC(C)=O | label 0
O=C1OC(=O)C2CCCC3CCCC1C32 (stereo unspecified) | label 1
S=C(Nc1ccc(Cl)cc1)SC1CCCCC1 | label 1
CC(=O)Oc1ccc2c(c1)Cc1cc(N=C3C=CC(=O)O3)ccc1-2 | label 1
CC[n+]1ccc2c(C)c3[nH]c4ccc(O)cc4c3c(C)c2c1 | label 0
CC1(C)C(=O)OC(n2cc(F)c(=O)[nH]c2=O)C1=O (stereo unspecified) | label 0
O=C(Nc1ccccc1)C(=O)C(C(=O)c1ccccc1)C(c1ccccc1)c1ccccc1 (stereo unspecified) | label 0

###

# reported growth inhibition; entries follow
- ASSAY OVERVIEW: NCI Yeast Anticancer Drug Screen. Data for the CLN2oe strain (AID 163);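 further: 0% = growth of vehicle-only control cultures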
- CONDITION SUMMARY: S. cerevisiae CLN2oe strain, at 100.0 µM, stronger effect = higher value
Compounds without any hit were thinned out: in the full panel of roughly 79,000, 15% have a hit. Activity calls are given as the source filed them. Cut-off read from the data, not from the text of the source: active = growth inhibition above about 70%; inactive = the rest.
PROPERTY MEASURED: growth inhibition

COMPOUND | RESULT
CSC(=S)Nc1cccc(C)n1 | 24% (inactive)
Cc1ccc(Nc2nc3c(=O)n(C)c(=O)n(C)c3nc2Nc2ccc(C)cc2)cc1 | -10% (inactive)
Oc1c(Br)cc(Br)cc1C1CCCCC1 | 99% (active)
O=[N+]([O-])c1ccc([N+]2=NC(c3ccccc3)=NN(c3ccccc3)C2)cc1 | 40% (inactive)
COc1ccc2nc3cccc([N+](=O)[O-])c3c(NCCN(CCO)CCO)c2c1 | 91% (active)
CN(C)CCn1c2c3ccccc3ccc2c2oc(=O)c3ccccc3c21 | 89% (active)
Cc1ccc(CCC2=CCCc3c2ccc2ccccc32)cc1 | 9% (inactive)
Cc1ccc(CSC(N)=Nc2ccccc2)cc1C | 46% (inactive)
COC(=O)CSSCc1ccc([N+](=O)[O-])cc1 | 95% (active)
O=C(O)c1cccc(-c2c3ccc(=O)cc-3oc3cc(O)ccc23)c1 | 96% (active)
O=C(O)c1ccccc1-c1ccccc1C(=O)Nc1ccc2c(c1)Cc1ccccc1-2 | 98% (active)
COc1ccc(O)c(/C=N\Nc2ccccc2)c1 | 21% (inactive)
CC1=C(SCCO)C(=O)c2ccccc2C1=O | 14% (inactive)
CCN(CC)C(C)(C)C(=O)/C=C/c1ccccc1 | 2% (inactive)
O=CC=C(c1ccccc1)c1ccccc1 | 98% (active)
O=C(N=Nc1ccccc1Cl)NNc1ccccc1Cl | 27% (inactive)
CC(C)/C(Cl)=N\OC(=O)Nc1ccc(F)cc1 | 15% (inactive)
CC1(C)[C@@H]2CC[C@]1(C)[C@H](OC(=O)CSC#N)C2 | 95% (active)
c1ccc2c(c1)-c1nc3ccccc3cc1C2N1CCOCC1 (stereo not drawn) | -3% (inactive)
N#CN=Nc1cc(Cl)c(N=NC#N)cc1Cl | 67% (inactive)
Cc1cc(S(=O)(=O)/N=C(/NN)NNc2cccc(C(F)(F)F)n2)c(S)cc1Cl | 3% (inactive)
O=C1c2ccccc2-c2nc3ccccc3nc21 | 34% (inactive)
COc1cc(CC2CC(c3ccc4c(c3)OCO4)OC2=O)cc(OC)c1OC (stereo not drawn) | 15% (inactive)
